% Inhibition at 1 μM at Melanocortin Receptor 3 by entry:
# study.system: hMC3-R (Homo sapiens, UniProt P41968)
# Construct: expressed in transfected cells
# Sequence (P41968 whole entry): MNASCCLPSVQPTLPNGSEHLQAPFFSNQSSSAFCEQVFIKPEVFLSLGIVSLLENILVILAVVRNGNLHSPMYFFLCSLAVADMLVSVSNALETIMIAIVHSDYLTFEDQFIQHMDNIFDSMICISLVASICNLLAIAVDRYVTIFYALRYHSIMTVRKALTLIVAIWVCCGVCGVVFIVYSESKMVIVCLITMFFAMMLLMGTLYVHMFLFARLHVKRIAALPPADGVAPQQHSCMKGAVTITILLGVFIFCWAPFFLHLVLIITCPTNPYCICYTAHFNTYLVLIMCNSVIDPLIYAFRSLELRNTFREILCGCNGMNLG
# assay.explanation: competitive inhibition binding assay, 125I-NDP-alpha-MSH, hMC3-R membranes
# stated.conditions: 1 μM test peptide; 0.4 nM 125I-NDP-alpha-MSH; hMC3-R membranes
Square brackets hold non-standard residues; d marks the D form. Ends that are not written are not given here. Nle = CCCC[C@H](N)C(=O)O
The reply should contain only the number, in %.

Some solved entries appear below for comparison.
INSERT INTO results (substance, assay_value) VALUES
  ('Tyr-Val-Nle-Gly-His-D-Phe-Arg-Trp-Asp-Cys-Phe-NH2 (YV[Nle]GH[dF]RWDCF-NH2; numbers in words are those of the source; also: oxorhenium(V) N3S1 chelate complex (Re=O)) [5-2]', 39),
  ('Tyr-Val-Nle-Gly-Cys-His-D-Phe-Arg-Trp-Asp-Arg-Phe-NH2 (YV[Nle]GCH[dF]RWDRF-NH2; not fully specified (bridges); printed as Tyr-Val-Nle-Gly-Cys-His-D-Phe-Arg-Trp-Asp-Arg-Phe-NH2; numbers in words are those of the source; also: oxorhenium(V) N3S1 chelate complex (Re=O)) [3-9]', 69);

Then there is this substance:
Q: // returns reported % Inhibition at 1 μM at Melanocortin Receptor 3 for input Ac-Ser-Tyr-Ser-Nle-Glu-His-Phe-Arg-Trp-Gly-Lys-Gly-Val-Cys-NH2 (Ac-SYS[Nle]EHFRWGKGVC-NH2; not fully specified (bridges); printed as Ac-Ser-Tyr-Ser-Nle-Glu-His-Phe-Arg-Trp-Gly-Lys-Gly-Val-Cys-NH2; numbers in words are those of the source; also: oxorhenium(V) N3S1 chelate (Re(V)=O)) [1-1]
Ans: 48

###

# study.system: MC1-R (Mus musculus)
# Construct: membranes prepared from hMC3-R, hMC4-R, hMC5-R, and B-16 mouse melanoma cells (containing MC1-R); endogenous in cells; host or cells: B-16 mouse melanoma cells (membranes)
# Sequence (Q01727 whole entry): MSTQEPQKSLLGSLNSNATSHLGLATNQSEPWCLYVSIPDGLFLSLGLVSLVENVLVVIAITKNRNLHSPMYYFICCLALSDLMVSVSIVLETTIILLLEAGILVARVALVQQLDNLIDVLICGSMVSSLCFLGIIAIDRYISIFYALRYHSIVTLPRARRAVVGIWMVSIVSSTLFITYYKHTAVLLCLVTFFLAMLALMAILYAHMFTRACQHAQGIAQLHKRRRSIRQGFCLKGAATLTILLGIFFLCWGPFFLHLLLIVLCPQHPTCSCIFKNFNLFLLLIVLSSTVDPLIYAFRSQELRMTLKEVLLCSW
# assay.explanation: competitive inhibition binding assay, 125I-NDP-alpha-MSH, B-16 mouse melanoma cell membranes
# stated.conditions: 1 μM test peptide; 0.4 nM 125I-NDP-alpha-MSH; B-16 mouse melanoma cell membranes
Square brackets hold non-standard residues; d marks the D form. Ends that are not written are not given here. Nle = CCCC[C@H](N)C(=O)O
% Inhibition at 1 μM at Melanocortin Receptor 1 by entry:
The reply should contain only the number, in %.

Some solved entries appear below for comparison.
INSERT INTO results (substance, assay_value) VALUES
  ('Ac-Ser-Tyr-Ser-Nle-Glu-His-Phe-D-Cys-Arg-Trp-Gly-Lys-Pro-Val-NH2 ({Ac-Ser-Tyr-Ser-Nle-Glu-H2N}-F[dC]RWGKPV-NH2; numbers in words are those of the source; also: oxorhenium(V) N3S1 chelate via Cys (Re(V)=O)) [2-7]', 54),
  ('Tyr-Val-Nle-Gly-His-Phe-Arg-Trp-Cys-Asp-Arg-Phe-NH2 (YV[Nle]GHFRWCDRF-NH2; numbers in words are those of the source; also: oxorhenium(V) N3S1 chelate (Re=O) with Cys) [4-4]', 52);

Q: // returns reported % Inhibition at 1 μM at Melanocortin Receptor 1 for input Tyr-Val-Nle-Gly-His-D-Phe-Arg-Trp-Asp-Arg-Cys-Phe-NH2 (YV[Nle]GH[dF]RWDRCF-NH2; also: Re complex) [3-2]
Ans: 99

###

# System: bombesin receptor
# assay.explanation: competitive binding assay, 125I-Bombesin, rat brain membranes
# stated.conditions: inhibition of 0.01 nM 125I-Bombesin binding; rat brain membranes; test concentration not given
# Experimental: Rat brain membranes were utilized as the source of bombesin receptor. […] The filters were dried and counted in a gamma counter for retained radioactivity. Non-specific binding was measured by including 1 μM Bombesin in the assay tube. The assay was performed in triplicate and results calculated to determine percentage inhibition of the ^125I-Bombesin binding to its receptors by a test compound. […]
Square brackets hold non-standard residues; d marks the D form. Ends that are not written are not given here. pGlu = O=C1CC[C@@H](C(=O)O)N1; Nle = CCCC[C@H](N)C(=O)O
Quick rule for you: % Inhibition at 60% or higher means Condition met, lower means Condition not met.

Below are worked cases with known answers.
INSERT INTO results (substance, study_system, discrete_label) VALUES
  ('D-Phe-Gln-Trp-Ala-Val-Gly-His-Leu-Leu-Cys-NH2 ([dF]QWAVGHLLC-NH2; also: rhenium complex (oxorhenium(V) N3S1 chelate via Cys)) [8-1]', 'bombesin receptor', 'Condition not met'),
  ('D-Phe-Gln-Trp-Ala-Val-Cys-His-NH2 ([dF]QWAVCH-NH2; also: oxorhenium(V) N3S1 chelate via Cys (Re(V)=O)) [11-2]', 'bombesin receptor', 'Condition not met'),
  ('D-Phe-Gln-Trp-Ala-Val-Cys-His-Leu-NH2 ([dF]QWAVCHL-NH2; also: oxorhenium(V) N3S1 chelate via Cys (Re(V)=O)) [11-1]', 'bombesin receptor', 'Condition met');

Q: Determine whether measured % Inhibition meets or exceeds 60% for Pyr-Gln-Arg-Leu-Gly-Cys-Gln-Trp-Ala-Val-Gly-His-Leu-Nle-NH2 (QRLGCQWAVGHL; N-term pyroglutamate; Nle-NH2; rhenium complex; printed: Gln-Arg-Leu-Gly-Cys-Gln-Trp-Ala-Val-Gly-His-Leu-) [7-9]
Ans: Condition met

Q: Determine whether measured % Inhibition meets or exceeds 60% for D-Phe-Gln-Trp-Ala-Val-Gly-His-Cys-Leu-Leu-NH2 ([dF]QWAVGHCLL-NH2; also: rhenium complex (oxorhenium(V) N3S1 chelate via Cys)) [8-3]
Ans: Condition not met

Q: Determine whether measured % Inhibition meets or exceeds 60% for Pyr-Gln-Arg-Leu-Gly-Asn-Gln-Trp-Ala-Cys-Val-Gly-His-Leu-Nle-NH2 ([pGlu]QRLGNQWACVGHL[Nle]-NH2; numbers in words are those of the source; also: oxorhenium(V) N3S1 chelate (Re=O) with Cys) [6-6]
Ans: Condition met

Q: Determine whether measured % Inhibition meets or exceeds 60% for D-Phe-Gln-Trp-Ala-Val-Cys-NH2 ([dF]QWAVC-NH2; also: oxorhenium(V) N3S1 chelate via Cys (Re(V)=O)) [11-3]
Ans: Condition not met

Q: Determine whether measured % Inhibition meets or exceeds 60% for D-Phe-Gln-Trp-Ala-Val-D-Cys-His-Leu-Leu-NH2 (chain 1 [dF]QWAV; chain 2 [dC]HLL-NH2; not fully specified (bridges); also: chain 2 continues chain 1 in one peptide (Val-D-Cys bond), Re-peptide (rhenium complex)) [10-2]
Ans: Condition met

Q: Determine whether measured % Inhibition meets or exceeds 60% for D-Phe-Gln-Cys-Ala-Val-Gly-His-Leu-Leu-NH2 ([dF]QCAVGHLL-NH2; also: oxorhenium(V) N3S1 tetradentate complex via Cys) [9-7]
Ans: Condition not met

Q: Determine whether measured % Inhibition meets or exceeds 60% for Gln-Trp-Ala-Val-Cys-His-Leu-Leu-NH2 [11-4] (QWAVCHLL-NH2; not fully specified (bridges); printed as Gln-Trp-Ala-Val-Cys-His-Leu-Leu-NH2; also: oxorhenium(V) N3S1 chelate (Re(V)=O))
Ans: Condition not met

###

# study.system: hMC4-R (Homo sapiens, UniProt P32245)
# Construct: expressed in transfected cells
# Sequence (P32245 whole entry): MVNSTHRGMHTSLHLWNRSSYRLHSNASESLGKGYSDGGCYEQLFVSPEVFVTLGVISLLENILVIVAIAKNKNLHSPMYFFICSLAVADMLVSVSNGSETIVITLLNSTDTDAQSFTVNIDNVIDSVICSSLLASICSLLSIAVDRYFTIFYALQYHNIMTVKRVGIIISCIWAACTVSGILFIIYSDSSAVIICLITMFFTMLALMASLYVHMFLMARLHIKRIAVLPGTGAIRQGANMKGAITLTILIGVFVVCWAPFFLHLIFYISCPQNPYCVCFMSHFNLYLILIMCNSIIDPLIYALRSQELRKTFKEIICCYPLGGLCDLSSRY
# assay.explanation: competitive inhibition binding assay, 125I-NDP-alpha-MSH, hMC4-R membranes
# stated.conditions: 1 μM test peptide; 0.4 nM 125I-NDP-alpha-MSH; hMC4-R membranes
Square brackets hold non-standard residues; d marks the D form. Ends that are not written are not given here. Nle = CCCC[C@H](N)C(=O)O
measured.endpoint: % Inhibition at 1 μM at Melanocortin Receptor 4 (%)
The reply should contain only the number, in %.

Some solved entries appear below for comparison.
INSERT INTO assay_data (substance, assay_value) VALUES
  ('Ac-Ser-Tyr-Ser-Nle-D-Cys-Glu-His-Phe-Arg-Trp-Gly-Lys-Pro-Val-NH2 (Ac-SYS[Nle][dC]EHFRWGKPV-NH2; numbers in words are those of the source; also: oxorhenium(V) N3S1 chelate via Cys (Re(V)=O)) [2-10]', 18),
  ('Tyr-Val-Nle-Gly-His-D-Phe-Cys-Arg-Trp-Asp-Arg-Phe-NH2 (YV[Nle]GH[dF]CRWDRF-NH2; also: Re complex) [3-6]', 31),
  ('Tyr-Val-Nle-Gly-His-D-Phe-Arg-Trp-Asp-Arg-Cys-Phe-NH2 (YV[Nle]GH[dF]RWDRCF-NH2; also: Re complex) [3-2]', 89),
  ('Ac-Ser-Tyr-Ser-Nle-Glu-His-Phe-Arg-Trp-Gly-D-Cys-Lys-Pro-Val-NH2 (chain 1 EHFRWG; chain 2 CKPV; not fully specified; Ac-Ser-Tyr-Ser-Nle N-term; D-residue; amide; printed: Glu-His-Phe-Arg-Trp-Gly-; printed: Cys-Lys-Pro-Val-) [2-4]', 40),
  ('Tyr-Val-Nle-Gly-His-Phe-Arg-Trp-Asp-Cys-Arg-Phe-NH2 (YV[Nle]GHFRWDCRF-NH2; numbers in words are those of the source; also: oxorhenium(V) N3S1 chelate (Re=O) with Cys) [4-3]', 23);

Q: // returns reported % Inhibition at 1 μM at Melanocortin Receptor 4 for input Ac-Ser-Tyr-Ser-Nle-Glu-His-Phe-Arg-D-Cys-Trp-Gly-Lys-Pro-Val-NH2 (chain 1 Ac-SYS[Nle]EHFR; chain 2 [dC]WGKPV-NH2; not fully specified (bridges); numbers in words are those of the source; also: oxorhenium(V) N3S1 chelate (Re(V)=O)) [2-6]
Ans: 6

Q: // returns reported % Inhibition at 1 μM at Melanocortin Receptor 4 for input Ac-Ser-Tyr-D-Cys-Ser-Nle-Glu-His-Phe-Arg-Trp-Gly-Lys-Pro-Val-NH2 (Ac-SY[dC]S[Nle]EHFRWGKPV-NH2; not fully specified (bridges); printed as Ac-Ser-Tyr-D-Cys-Ser-Nle-Glu-His-Phe-Arg-Trp-Gly-Lys-Pro-Val-NH2; numbers in words are those of the source; also: oxorhenium(V) N3S1 chelate (Re(V)=O)) [2-12]
Ans: 47

Q: // returns reported % Inhibition at 1 μM at Melanocortin Receptor 4 for input Tyr-Val-Nle-Gly-His-D-Phe-Cys-Trp-Asp-Arg-Phe-NH2 (YV[Nle]GH[dF]CWDRF-NH2; numbers in words are those of the source; also: oxorhenium(V) N3S1 chelate complex (Re=O)) [5-5]
Ans: 26

Q: // returns reported % Inhibition at 1 μM at Melanocortin Receptor 4 for input Tyr-Val-Nle-Gly-His-Cys-Arg-Trp-Asp-Arg-Phe-NH2 (YV[Nle]GHCRWDRF-NH2; numbers in words are those of the source; also: oxorhenium(V) N3S1 chelate (Re=O) with Cys) [5-6]
Ans: 4

Q: // returns reported % Inhibition at 1 μM at Melanocortin Receptor 4 for input Ac-Ser-Tyr-Ser-Nle-Glu-His-Phe-Arg-Trp-Gly-Lys-Gly-Val-Cys-NH2 (Ac-SYS[Nle]EHFRWGKGVC-NH2; not fully specified (bridges); printed as Ac-Ser-Tyr-Ser-Nle-Glu-His-Phe-Arg-Trp-Gly-Lys-Gly-Val-Cys-NH2; numbers in words are those of the source; also: oxorhenium(V) N3S1 chelate (Re(V)=O)) [1-1]
Ans: 63

Q: // returns reported % Inhibition at 1 μM at Melanocortin Receptor 4 for input Ac-Ser-Tyr-Ser-Nle-Glu-His-Phe-Arg-Trp-Gly-Lys-Gly-Cys-Val-NH2 (Ac-SYS[Nle]EHFRWGKGCV-NH2; not fully specified (bridges); printed as Ac-Ser-Tyr-Ser-Nle-Glu-His-Phe-Arg-Trp-Gly-Lys-Gly-Cys-Val-NH2; numbers in words are those of the source; also: oxorhenium(V) N3S1 chelate (Re(V)=O)) [1-2]
Ans: 0
